The values you see were collected from ChEMBL document CHEMBL3988442.

target: Arginase-2, mitochondrial (Homo sapiens) (UniProt P78540); assay: in vitro enzyme assay to detect the production of urea directly proportional to the activity of Arginase II; format: functional; set-up: scale not given: in the data most compounds retested in dose-response had high values; conditions: 33.3 µM
Sequence (P78540 whole entry): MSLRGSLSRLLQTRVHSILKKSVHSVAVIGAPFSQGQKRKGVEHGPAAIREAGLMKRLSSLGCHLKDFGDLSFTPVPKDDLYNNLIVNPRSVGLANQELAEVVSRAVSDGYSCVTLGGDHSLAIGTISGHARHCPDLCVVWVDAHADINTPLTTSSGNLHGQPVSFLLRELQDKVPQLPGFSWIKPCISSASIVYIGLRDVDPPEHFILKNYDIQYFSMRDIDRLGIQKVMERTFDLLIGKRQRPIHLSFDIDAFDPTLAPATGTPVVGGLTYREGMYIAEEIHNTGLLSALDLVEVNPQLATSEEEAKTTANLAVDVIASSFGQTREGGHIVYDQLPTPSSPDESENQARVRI
Entries and their Percent Effect values follow.
MEASUREMENT TYPE: Percent Effect (%)

> print(dat)
                                   compound  measurement.type  reported.measurement
1      c1cnc2c(C3CCN(Cc4ccsc4)CC3)n[nH]c2n1    Percent Effect                 -1.62
2  CC(Cn1cccn1)NC(=O)Nc1ccc(N(C)C)nc1 (stereo unspecified)    Percent Effect                 0.883
3       Cc1ccc(CN(CCCn2ccnc2)Cc2c[nH]cn2)s1    Percent Effect                  1.62
4  Cc1nc(CN2CCC3(CCCN(Cc4cnn(C)c4)C3)C2=O)cs1 (stereo unspecified)    Percent Effect                 -57.2
5  COc1cc(CNC(=O)Nc2cc(C(F)(F)F)c[nH]c2=O)ccn1    Percent Effect                 -3.06
6     COc1ccc(S(=O)(=O)NCc2cccnc2N(C)C)cc1F    Percent Effect                  6.08
